Data provenance is ChEMBL document CHEMBL5291721.

Molecular target: Sodium-dependent dopamine transporter (Homo sapiens, UniProt Q01959); further: assay procedure not described here
Sequence (Q01959 whole entry): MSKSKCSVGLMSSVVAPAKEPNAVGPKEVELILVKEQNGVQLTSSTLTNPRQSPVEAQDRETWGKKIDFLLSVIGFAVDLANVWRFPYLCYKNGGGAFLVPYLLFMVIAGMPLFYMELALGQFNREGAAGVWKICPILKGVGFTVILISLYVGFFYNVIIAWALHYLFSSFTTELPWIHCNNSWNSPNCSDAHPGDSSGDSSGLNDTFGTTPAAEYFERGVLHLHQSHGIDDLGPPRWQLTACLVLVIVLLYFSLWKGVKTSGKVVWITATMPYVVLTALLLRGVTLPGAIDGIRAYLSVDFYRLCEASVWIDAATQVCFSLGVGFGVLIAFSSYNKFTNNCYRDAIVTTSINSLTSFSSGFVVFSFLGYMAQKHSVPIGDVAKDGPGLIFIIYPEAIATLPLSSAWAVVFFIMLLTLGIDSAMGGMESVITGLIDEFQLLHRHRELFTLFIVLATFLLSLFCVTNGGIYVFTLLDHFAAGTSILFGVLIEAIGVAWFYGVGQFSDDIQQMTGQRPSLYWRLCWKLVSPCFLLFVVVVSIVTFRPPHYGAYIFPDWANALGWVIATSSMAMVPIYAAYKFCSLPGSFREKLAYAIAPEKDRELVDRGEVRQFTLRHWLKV
measurement_kind: AC50

Look up AC50 with Sodium-dependent dopamine transporter (Homo sapiens, UniProt Q01959) for this molecule: CC(C)(C)NCC(O)COc1cccc2c1CCC(=O)N2 (centres undefined) [CARTEOLOL]
> 10 µM

Look up AC50 with Sodium-dependent dopamine transporter (Homo sapiens, UniProt Q01959) for this molecule: O=C(OCC(O)CO)c1ccccc1Nc1ccnc2cc(Cl)ccc12 (centres undefined) [GLAFENINE]
> 30 µM

Look up AC50 with Sodium-dependent dopamine transporter (Homo sapiens, UniProt Q01959) for this molecule: O=C1Nc2ccc(Cl)cc2[C@@](C#CC2CC2)(C(F)(F)F)O1 [EFAVIRENZ]
18 µM

Let us examine a further case.
Look up AC50 with Sodium-dependent dopamine transporter (Homo sapiens, UniProt Q01959) for this molecule: CC(C)C[C@H]1C(=O)N2CCC[C@H]2[C@]2(O)O[C@](NC(=O)[C@@H]3C=C4c5cccc6[nH]c(Br)c(c56)C[C@H]4N(C)C3)(C(C)C)C(=O)N12 [BROMOCRIPTINE]
> 30 µM
